assay: Rat pK; conditions: in vivo, po, read-out: Rat pK: % F
Structures can show the parent of a compound that is named as a salt.
Criterion: bioavailability meeting or surpassing 20%. Met: 1.0. Not met: 0.0.

[
  {
    "compound": "N#Cc1cccc(CN2CCC(Nc3ncnc4sc(Cl)cc34)CC2)c1 [Example B43, monomaleate]",
    "answer label": 0.0
  },
  {
    "compound": "CC(C)Cc1cc2c(NC3CCN(C(C)c4cc(F)cc(F)c4)CC3)ncnc2s1 (stereo not drawn) [Example B18, dihydrochloride]",
    "answer label": 0.0
  },
  {
    "compound": "N#Cc1cc(CN2CCC(Nc3ncnc4sc(Cl)cc34)CC2)ccc1F",
    "answer label": 1.0
  },
  {
    "compound": "Fc1cc(F)cc(CN2CCC(Nc3ncnc4sc(Cl)cc34)CC2)c1.O=C(O)/C=C\\C(=O)O",
    "answer label": 1.0
  },
  {
    "compound": "Cc1c(Cl)sc2ncnc(NC3CCN(Cc4cccc(F)c4)CC3)c12.O=C(O)/C=C\\C(=O)O",
    "answer label": 0.0
  },
  {
    "compound": "Fc1cc(F)cc(CN2CCC(Nc3ncnc4sccc34)CC2)c1 [Example B30, dihydrochloride]",
    "answer label": 0.0
  },
  {
    "compound": "CC(C)c1cc2c(NC3CCN(Cc4cc(F)cc(F)c4)CC3)ncnc2s1 [Example B31, dihydrochloride]",
    "answer label": 0.0
  },
  {
    "compound": "Fc1cccc(CN2CCC(Nc3ncnc4sc(Cl)cc34)CC2)c1.O=C(O)/C=C\\C(=O)O",
    "answer label": 1.0
  },
  {
    "compound": "CC(C)Cc1cc2c(NC3CCN(C(C)c4cccc(F)c4)CC3)ncnc2s1 (stereo not drawn) [Example B14, dihydrochloride]",
    "answer label": 0.0
  }
]
